# measured-on: Mannose-6-phosphate isomerase (Homo sapiens)
# method-notes: MPI inhibition at elevated mannose 6-phosphate – biochemical, fluorescence intensity, high mannose 6-phosphate, primary screen (AID 1220)
# reported-conditions: recombinant PMI enzyme, coupled fluorescence intensity; at 20 µM; stronger effect = higher value
The whole screen tested about 190,000 compounds, of which about 1,300 (0.68%) were called active. The entries come from a sample that favours actives as a whole.
measurement-label: inhibition (%)
Expressed in %, but write only the number.

Consider the following illustrative entries.
Cc1cc(C)c(NC(=O)CS)c(Cl)c1 = -11.6
Cc1ccc(NC(=S)/C(=C(\[O-])c2ccc(Cl)s2)[n+]2cccc(CO)c2)cc1C = 10.4
COc1cc(CNCCO)cc(Br)c1OCc1ccccc1 = 1.8
Cc1cc(C)cc(NC(=S)/C(=C(\[O-])c2ccc(Cl)s2)[n+]2cccc(C)c2)c1 = 51.9

Record summary for "Clc1ccc(C2=NCCN2)cc1" : reported inhibition = 1.4

Record summary for "CSc1ccccc1NC(=O)CCn1c(=O)sc2ccccc21" : reported inhibition = -0.9
